Target: Transient receptor potential cation channel subfamily V member 1 (Homo sapiens, UniProt Q8NER1)
Sequence (Q8NER1 whole entry): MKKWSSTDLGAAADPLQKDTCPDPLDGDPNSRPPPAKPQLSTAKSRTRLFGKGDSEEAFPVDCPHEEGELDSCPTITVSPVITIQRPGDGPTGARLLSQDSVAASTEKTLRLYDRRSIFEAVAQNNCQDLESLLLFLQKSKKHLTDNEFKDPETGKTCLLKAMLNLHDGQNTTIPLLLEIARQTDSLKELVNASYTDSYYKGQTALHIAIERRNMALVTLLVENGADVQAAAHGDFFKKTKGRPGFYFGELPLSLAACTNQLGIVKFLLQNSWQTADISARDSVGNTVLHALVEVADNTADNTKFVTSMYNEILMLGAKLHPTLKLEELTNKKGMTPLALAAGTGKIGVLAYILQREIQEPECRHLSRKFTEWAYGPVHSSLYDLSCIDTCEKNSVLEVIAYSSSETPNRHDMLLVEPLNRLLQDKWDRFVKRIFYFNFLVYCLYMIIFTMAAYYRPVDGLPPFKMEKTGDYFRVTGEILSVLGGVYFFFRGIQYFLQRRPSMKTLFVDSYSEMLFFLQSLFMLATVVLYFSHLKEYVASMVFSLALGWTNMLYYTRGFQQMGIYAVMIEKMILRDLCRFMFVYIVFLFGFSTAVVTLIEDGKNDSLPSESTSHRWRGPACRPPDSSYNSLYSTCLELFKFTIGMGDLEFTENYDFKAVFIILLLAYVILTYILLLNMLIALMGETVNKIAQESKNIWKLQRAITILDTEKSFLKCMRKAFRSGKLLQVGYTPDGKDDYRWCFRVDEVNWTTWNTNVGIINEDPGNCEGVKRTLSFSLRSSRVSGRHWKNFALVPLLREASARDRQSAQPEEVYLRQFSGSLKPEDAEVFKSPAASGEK
Test: FLIPR (Fluorescence Imaging Plate Reader)-Based Ca2+ Assay
Details: pH 7.2; 25 °C
Experimental: One day before the assay was performed, human TRPV1 expressed in 1321N1 astrocytoma cells were plated onto 96-well assay plates and grown until 2.5 h before the assay, and the cells were loaded with the Ca2+ reporter dye Fluo3-AM for 2 h at room temperature. After this, the cells were washed, and continuously being incubated for 30 min with medium containing test compounds at a range of different concentrations. […]
measured_property: EC50 (nM)

These recorded examples may help you get a feel for the data.
Cc1ccc(N2CC[C@@H](NC(=O)Nc3ccccc3Br)C2)cc1F: 5
O=C(NCCN1CCc2ccccc21)Nc1ccccc1Br: 158
O=C(NCCN1CCc2c(F)cccc21)Nc1ccccc1Br: 40

1 = O=C(Nc1ccccc1Br)N[C@@H]1CCN(c2ccc(Cl)cn2)C1
2 = Cc1cccc(N2CC[C@@H](NC(=O)Nc3ccccc3Br)C2)c1
3 = N#Cc1ccc(N2CC[C@@H](NC(=O)Nc3ccccc3Br)C2)nc1
4 = O=C(NCCN1CCc2cc(F)ccc21)Nc1ccccc1Br
5 = O=C(Nc1ccccc1Br)N[C@@H]1CCN(c2cc(C(F)(F)F)ccn2)C1
Request: Parameters: sort_field (EC50), sort_dir (desc). Order the labels as requested and give them as your answer.
Result: 3, 5, 4, 1, 2
